Provenance of the data: ChEMBL document CHEMBL3045487

Below is a list of entries, each paired with its recorded inhibition in vivo at 10 mg/kg value.
Tested on: Mus musculus
test.details: Anti-inflammatory activity in Swiss albino Mus musculus (mouse) assessed as inhibition of cotton pellet-induced granuloma formation at 10 mg/kg, po administered QD for 5 days measured at 1 hr post-last dose relative to control
Format: functional
Supply the numeric figure in %, leaving out any unit text.

For the compound shown here, O=c1cc(-c2ccc(O)c(O)c2)oc2cc(O)cc(O)c12 , give the reported inhibition in vivo at 10 mg/kg.
37

For the compound shown here, C[C@H]1[C@H](O)CC[C@@H]2[C@]1(C)CC[C@H]1[C@@]2(C)CC[C@@]2(C)[C@H]3CC(C)(C)CC[C@]3(C)CC[C@]12C , give the reported inhibition in vivo at 10 mg/kg.
29.2

For the compound shown here, CC(=O)O[C@H]1CC[C@@H]2[C@](C)(CC[C@H]3[C@@]2(C)CC[C@@]2(C)[C@H]4CC(C)(C)CC[C@]4(C)CC[C@]32C)[C@H]1C [EPIFRIEDELANYL ACETATE] , give the reported inhibition in vivo at 10 mg/kg.
24.9

For the compound shown here, CC[C@H](CC[C@@H](C)[C@H]1CC[C@H]2[C@@H]3CC=C4C[C@@H](O)CC[C@]4(C)[C@H]3CC[C@]12C)C(C)C , give the reported inhibition in vivo at 10 mg/kg.
30.4

For the compound shown here, COc1ccc2c(c1)c(CC(=O)O)c(C)n2C(=O)c1ccc(Cl)cc1 , give the reported inhibition in vivo at 10 mg/kg.
45.5

For the compound shown here, C[C@H]1[C@H](C)CC[C@]2(C(=O)O)CC[C@]3(C)C(=CC[C@@H]4[C@@]5(C)CC[C@H](O)C(C)(C)[C@@H]5CC[C@]43C)[C@H]12 , give the reported inhibition in vivo at 10 mg/kg.
38.5

For the compound shown here, CCCCCCCCCCCCC(O)COS(=O)(=O)[O-].[Na+] (configuration not stated) , give the reported inhibition in vivo at 10 mg/kg.
12.9

* * *

Test system: Mus musculus
test.details: Toxicity in Swiss albino Mus musculus (mouse) assessed as weight loss up to 100 mg/kg, po measured up to 24 hr relative to control
Format: organism-based
Set-up: dose 100 mg/kg, route oral
assay.setup: in vivo

{"smiles.input": "CC[C@H](CC[C@@H](C)[C@H]1CC[C@H]2[C@@H]3CC=C4C[C@@H](O)CC[C@]4(C)[C@H]3CC[C@]12C)C(C)C", "tested.on": "Mus musculus", "Activity": "Non-toxic"}
{"smiles.input": "O=c1cc(-c2ccc(O)c(O)c2)oc2cc(O)cc(O)c12", "tested.on": "Mus musculus", "Activity": "Non-toxic"}
{"smiles.input": "C[C@H]1[C@H](C)CC[C@]2(C(=O)O)CC[C@]3(C)C(=CC[C@@H]4[C@@]5(C)CC[C@H](O)C(C)(C)[C@@H]5CC[C@]43C)[C@H]12", "tested.on": "Mus musculus", "Activity": "Non-toxic"}
